Test system: MS2 coat protein
Assay: apparent KD of MS2 coat protein; designed switch direction (-1 OFF switch, 1 ON switch): -1; higher = weaker reporter binding
Details: input ligand: none
QUANTITY_KIND: apparent KD of MS2 coat protein (nM)
Please reply with the bare figure in nM and do not write the unit itself.

Notebook: UUAUAGUAUGUAGGAUAUCGGUCAGUUUCUGAUCGAGAAGGACAUGAGGAUCACCCAUGUAAGGCUACCGGUUUCUGGUGGCCU [JL ENG1 3.52] (Eterna round: R96, puzzle: Exclusion NG 1) , apparent KD of MS2 coat protein read as 20.9

Notebook: GUCAUCACACAUGGGAUCAACAUGAGGAUCACCCAUGUUGCCAAGUUGUUUGCACGUCUUAUCAUACGUUUUUCGAU [Mod-Jxi] (Eterna round: R97, puzzle: Sensor, turn-off variant 1) , apparent KD of MS2 coat protein read as 22.7

Notebook: AAGUCGAGCGUGAGGAUAUCGUCCGGACGACCCAACGAGAAGGCACAUGAGGAUCACCCAUGUGAUUCAGCUCA [Brourd's EX4 #50] (Eterna round: R97, puzzle: Brourd's mod of Exclusion 4) , apparent KD of MS2 coat protein read as 18.7

Notebook: CAGUACUGAGGAUAUACAUGAGGAUCACCCAUGUGUUCCAGCUAGGAUACUAGCAAGUGUAGAAGGCAGUACUG [Mat - Exclusion 3 - Eli Mod - D7] (Eterna round: R97, puzzle: Exclusion 3) , apparent KD of MS2 coat protein read as 396

Notebook: GCCGAAAAUGUGAGGAUAUACCUAUGGAAACAUAGGUAGAAGGCACAUGAGGAUCACCCAUGUCCAAUAACGGC [Mat - Exclusion 4 - Eli Mod - D25] (Eterna round: R97, puzzle: Brourd's mod of Exclusion 4) , apparent KD of MS2 coat protein read as 287

Cited source: the supplement of paper PMC9170038
